Biological target: EP2 subtype of the human PGE2 receptor (Homo sapiens)
Sequence (P43116 whole entry): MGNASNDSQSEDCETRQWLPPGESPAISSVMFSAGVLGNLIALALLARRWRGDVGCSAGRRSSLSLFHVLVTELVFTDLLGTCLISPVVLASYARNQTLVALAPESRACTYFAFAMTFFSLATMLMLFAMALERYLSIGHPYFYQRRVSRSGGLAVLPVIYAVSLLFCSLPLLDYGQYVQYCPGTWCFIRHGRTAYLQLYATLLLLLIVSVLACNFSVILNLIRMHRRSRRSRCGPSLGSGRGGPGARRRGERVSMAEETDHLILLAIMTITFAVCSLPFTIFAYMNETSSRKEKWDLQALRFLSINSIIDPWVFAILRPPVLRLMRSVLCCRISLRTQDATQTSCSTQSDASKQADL
Experiment: cAMP antagonism test on the human EP2 receptor (HTRF cAMP detection)
Format: cell-based
Settings: hEP2 receptor, read-out: Antagonism hEP2 IC50
test_readout: IC50 (nM)

# molecule, test_readout, readout_value
records = [
    ("Cc1c(C(=O)NCC(C)OCC2CC2)ccc2nn(CC3CCN(C(=O)c4ccc(C(F)(F)F)cc4)CC3)cc12 (racemic) [Example 104]", "IC50", 513),
    ("COCCNC(=O)c1ccc2nn(CC3CCN(C(=O)c4ccc(C5CC5)cc4)CC3)cc2c1OC(F)F [Example 228]", "IC50", 8.09),
    ("COCCNC(=O)c1cc2cn(CC3CN(C(=O)c4ccc(C(F)(F)F)cc4)C3)nc2cc1C [Example 186]", "IC50", 51.9),
    ("COc1ccc2c(c1)cc(C(=O)N1CC(Cn3cc4c(C)c(C(=O)NCC(F)(F)F)ccc4n3)C1)n2C [Example 168]", "IC50", 29.3),
]

* * *

Target: EP2 subtype of the human PGE2 receptor (Homo sapiens)
Assay: cAMP antagonism test on the human EP2 receptor (HTRF cAMP detection)
Assay type: cell-based
Conditions: hEP2 receptor, read-out: Antagonism hEP2 IC50
Measured IC50 of individual entries
test_readout: IC50 (nM)

# compound, test_readout, readout_value
records = [
    ("Cc1c(C(=O)NCC(C)OCC2CC2)ccc2nn(CC3CCN(C(=O)c4ccc(-c5ccc(F)cc5)cc4)CC3)cc12 (racemic)", "IC50", 285),
    ("COCCNC(=O)c1ccc2nn(CC3CCN(C(=O)c4ccc(Oc5ccc(F)cc5)cc4)CC3)cc2c1OC(F)F", "IC50", 11.9),
    ("Cc1c(C(=O)NCCSC(F)(F)F)ccc2nn(C[C@@H]3CCN(C(=O)c4ccc(OC(F)(F)F)cc4)C3)cc12", "IC50", 235),
]

* * *

Molecular target: EP2 subtype of the human PGE2 receptor (Homo sapiens)
Experiment: cAMP antagonism test on the human EP2 receptor (HTRF cAMP detection)
Format: cell-based
Details: hEP2 receptor, read-out: Antagonism hEP2 IC50

# smiles_code, IC50 (nM)
rows = [
    ("Cc1c(C(=O)NCCS(C)(=O)=O)ccc2nn(CC3CCN(C(=O)c4ccc(Br)cc4)CC3)cc12", 30.4),
    ("Cc1c(C(=O)NCCS(C)(=O)=O)ccc2nn(CC3CCN(C(=O)c4ccc(Oc5ccc(C(F)(F)F)nc5)cc4)CC3)cc12", 12.5),
    ("Cc1c(C(=O)NCCSC(F)(F)F)ccc2nn(C[C@@H]3CCN(C(=O)c4ccc(Cl)cc4)C3)cc12", 147),
    ("Cc1c(C(=O)NCCOCC2CC2)ccc2nn(CC3CCN(C(=O)c4ccc(-c5ccc(F)cc5)cc4)CC3)cc12", 16.2),
    ("COCCNC(=O)c1ccc2nn(CC3CCN(C(=O)c4ccccc4OC)CC3)cc2c1C", 60.1),
    ("Cc1c(C(=O)NCC(F)(F)F)ccc2nn(CC3CCN(C(=O)c4ccc(-c5cccc(C(F)(F)F)n5)cc4)CC3)cc12", 232),
]

* * *

Measured pIC50 of individual entries
Target: EP2 subtype of the human PGE2 receptor (Homo sapiens)
Experiment: cAMP antagonism test on the human EP2 receptor (HTRF cAMP detection)
Assay type: cell-based
Details: hEP2 receptor, read-out: Antagonism hEP2 IC50
pIC50: −log10 of the molar value.
test_readout: pIC50

# compound, readout_value
data = [
    ("Cc1c(C(=O)NCC2COCCO2)ccc2nn(CC3CN(C(=O)c4ccc(Cl)cc4)C3)cc12 (single isomer, unassigned) [Example 143]", 7.43),
    ("CCc1c(C(=O)NCCOC)ccc2nn(CC3CCN(C(=O)c4ccc(OC(F)(F)F)cc4)CC3)cc12", 7.08),
    ("COCCNC(=O)c1cc2cn(CC3CN(C(=O)c4ccc(Cl)cc4F)C3)nc2cc1C", 7.33),
    ("[2H]C([2H])([2H])OC([2H])([2H])C([2H])([2H])NC(=O)c1ccc2nn(CC3CCN(C(=O)c4ccc(Cl)cc4)CC3)cc2c1C", 8.04),
    ("COCCNC(=O)c1ccc2nn(CC3CCN(C(=O)c4ccc(-c5ccc(F)cc5)cc4)CC3)cc2c1OCC(F)(F)F", 7.32),
    ("Cc1cc2nn(CC3CN(C(=O)c4ccc(Oc5ccc(C(F)(F)F)cc5)cc4)C3)cc2cc1C(=O)NCC(F)(F)F", 7.60),
    ("Cc1cc2nn(CC3CN(C(=O)c4ccc(Cl)cc4)C3)cc2cc1C(=O)NCCOC(F)(F)F", 7.20),
    ("COCCNC(=O)c1ccc2nn(CC3CCN(C(=O)c4ccc(OC(F)(F)F)c(F)c4)CC3)cc2c1OC", 7.63),
    ("Cc1c(C(=O)NCC2COCCO2)ccc2nn(CC3CCN(C(=O)c4ccc(Oc5ccc(C(F)(F)F)cc5)cc4)CC3)cc12 (single isomer, unassigned) [Example 418]", 7.80),
    ("Cc1c(C(=O)NCCN2CCOCC2)ccc2nn(CC3CCN(C(=O)c4cccc(OC(F)(F)F)c4)CC3)cc12", 5.82),
    ("Cc1c(C(=O)NCC(F)(F)F)ccc2nn(CC3CCN(C(=O)c4cc5cc(Cl)ccc5n4C)CC3)cc12", 7.88),
]

The origin of these recorded values is patent US9062041B2.
